study-target: recombinant MERS-CoV S1 protein (MERS-CoV)
measurement-description: SPR
assay-readout: pKd
The read-out pKd is expressed as -log10 of concentration in moles per litre.

Fill in: pKd of IgG1 m336-gL (all light-chain somatic mutations reverted to germline) (antibody, V domains shown) VH: QVQLVQSGAEVKKPGSSVKVSCKASGGTFSSYAISWVRQAPGQGLEWMGGIIPIFGTASYAQKFQGRVTITADKSTSTAYMELSSLRSEDTAVYYCARVGYCSSTSCNRGAFDIWGQGTMVTVSS VL: DIQMTQSPSSLSASVGDRVTITCRASQGIRNDLGWYQQKPGKAPKRLIYAASSLQSGVPSRFSGSGSGTEFTLTISSLQPEDFATYYCLQHNSYPLTFGGGTKVEIK is ___
7.60
